Would you kindly list mass density for each of these compounds?
# methodSummary: xn = mol fraction of the nth substance listed
# conditionContext: 348.15 K; 100 kPa; Liquid; Vibrating tube method; x1 = 0.25
One number for each entry, in kg/m3.

compound: CCCCCCn1cc[n+](C)c1.O=[N+]([O-])c1cn[n-]c1 [1-hexyl-3-methylimidazolium 4-nitropyrazolide] + CCCCCCCCCCCCCC[P+](CCCCCC)(CCCCCC)CCCCCC.O=S(=O)([N-]S(=O)(=O)C(F)(F)F)C(F)(F)F
metricName: mass density
value: 1035.9
//
compound: CCCCCCn1cc[n+](C)c1C.O=[N+]([O-])c1cn[n-]c1 [1-hexyl-2,3-dimethylimidazolium 4-nitropyrazolide] + CCCCCCCCCCCCCC[P+](CCCCCC)(CCCCCC)CCCCCC.O=S(=O)([N-]S(=O)(=O)C(F)(F)F)C(F)(F)F
metricName: mass density
value: 1036.1
//
compound: CCCCCCCC[P+](CC)(CC)CC.O=[N+]([O-])c1cn[n-]c1 [triethyloctylphosphonium 4-nitropyrazolide] + CCCCCCn1cc[n+](C)c1C.O=S(=O)([N-]S(=O)(=O)C(F)(F)F)C(F)(F)F
metricName: mass density
value: 1237.9

Now let's try a different one.
Item under review: CCCCCCCC[P+](CC)(CC)CC.O=[N+]([O-])c1cn[n-]c1 [triethyloctylphosphonium 4-nitropyrazolide] + CCCCCC[n+]1ccn(C)c1.O=S(=O)([N-]S(=O)(=O)C(F)(F)F)C(F)(F)F . Reported mass density?
1243.5

====

# methodSummary: xn = mol fraction of the nth substance listed
# conditionContext: 303.15 K; 100 kPa; Liquid; Cone and plate viscometry; x1 = 0.6
metricName: viscosity (mPa·s)
Give bare numbers, in mPa·s.

compound: CCCCCCCC[P+](CC)(CC)CC.O=[N+]([O-])c1cn[n-]c1 [triethyloctylphosphonium 4-nitropyrazolide] + CCCCCCn1cc[n+](C)c1C.O=S(=O)([N-]S(=O)(=O)C(F)(F)F)C(F)(F)F
metricName: viscosity
value: 185

compound: CCCCCCCCCCCCCC[P+](CCCCCC)(CCCCCC)CCCCCC.N#Cc1ccc[n-]1 [trihexyl(tetradecyl)phosphonium 2-cyanopyrrolide] + CCCCCC[n+]1ccn(C)c1.O=S(=O)([N-]S(=O)(=O)C(F)(F)F)C(F)(F)F
metricName: viscosity
value: 236

compound: CC(=O)[O-].CCCCCCCCCCCCCC[P+](CCCCCC)(CCCCCC)CCCCCC [trihexyl(tetradecyl)phosphonium acetate] + CCCCCC[n+]1ccn(C)c1.O=S(=O)([N-]S(=O)(=O)C(F)(F)F)C(F)(F)F
metricName: viscosity
value: 376

Item under review: CCCCCCn1cc[n+](C)c1.N#Cc1ccc[n-]1 [1-hexyl-3-methylimidazolium 2-cyanopyrrolide] + CCCCCCCCCCCCCC[P+](CCCCCC)(CCCCCC)CCCCCC.O=S(=O)([N-]S(=O)(=O)C(F)(F)F)C(F)(F)F . Reported viscosity?
224

====

# methodSummary: xn = mol fraction of the nth substance listed
# conditionContext: 313.15 K; 100 kPa; Liquid; Cone and plate viscometry; x1 = 0.1
metricName: viscosity (mPa·s)
Numbers only, in mPa·s.

Sample records with viscosity:
molecule: CCCCCCn1cc[n+](C)c1.O=[N+]([O-])c1cn[n-]c1 [1-hexyl-3-methylimidazolium 4-nitropyrazolide] + CCCCCCCC[P+](CC)(CC)CC.O=S(=O)([N-]S(=O)(=O)C(F)(F)F)C(F)(F)F
metricName: viscosity
value: 58

molecule: CCCCCCn1cc[n+](C)c1.N#Cc1ccc[n-]1 [1-hexyl-3-methylimidazolium 2-cyanopyrrolide] + CCCCCCCCCCCCCC[P+](CCCCCC)(CCCCCC)CCCCCC.O=S(=O)([N-]S(=O)(=O)C(F)(F)F)C(F)(F)F
metricName: viscosity
value: 138

molecule: CCCCCCCCCCCCCC[P+](CCCCCC)(CCCCCC)CCCCCC.N#Cc1ccc[n-]1 [trihexyl(tetradecyl)phosphonium 2-cyanopyrrolide] + CCCCCCn1cc[n+](C)c1C.O=S(=O)([N-]S(=O)(=O)C(F)(F)F)C(F)(F)F
metricName: viscosity
value: 81

Now let's try a different one.
Item under review: CCCCCCCCCCCCCC[P+](CCCCCC)(CCCCCC)CCCCCC.N#Cc1ccc[n-]1 [trihexyl(tetradecyl)phosphonium 2-cyanopyrrolide] + CCCCCC[n+]1ccn(C)c1.O=S(=O)([N-]S(=O)(=O)C(F)(F)F)C(F)(F)F . Reported viscosity?
52

====

Would you kindly list viscosity for each of these compounds?
# methodSummary: xn = mol fraction of the nth substance listed
# conditionContext: 288.15 K; 100 kPa; Liquid; Cone and plate viscometry; x1 = 0.101
Numbers only, in mPa·s.

compound: CCCCCCC[P+](CC)(CC)CC.O=[N+]([O-])c1cn[n-]c1 [triethylheptylphosphonium 4-nitropyrazolide] + CC[P+](CC)(CC)COCCOC.O=S(=O)([N-]S(=O)(=O)C(F)(F)F)C(F)(F)F
viscosity (mPa·s): 62
--
compound: CC(=O)[O-].CCCCCCCCCCCCCC[P+](CCCCCC)(CCCCCC)CCCCCC [trihexyl(tetradecyl)phosphonium acetate] + CCCCCC[n+]1ccn(C)c1.O=S(=O)([N-]S(=O)(=O)C(F)(F)F)C(F)(F)F
viscosity (mPa·s): 182
--
compound: CCCCCCn1cc[n+](C)c1.O=[N+]([O-])c1cn[n-]c1 [1-hexyl-3-methylimidazolium 4-nitropyrazolide] + CCCCCCCCCCCCCC[P+](CCCCCC)(CCCCCC)CCCCCC.O=S(=O)([N-]S(=O)(=O)C(F)(F)F)C(F)(F)F
viscosity (mPa·s): 570

Item under review: CCCCCCn1cc[n+](C)c1C.O=[N+]([O-])c1cn[n-]c1 [1-hexyl-2,3-dimethylimidazolium 4-nitropyrazolide] + CCCCCCCC[P+](CC)(CC)CC.O=S(=O)([N-]S(=O)(=O)C(F)(F)F)C(F)(F)F . Reported viscosity?
204

====

Would you kindly list viscosity for each of these compounds?
# methodSummary: xn = mol fraction of the nth substance listed
# conditionContext: 313.15 K; 100 kPa; Liquid; Cone and plate viscometry; x1 = 0.499
± gives the expanded uncertainty stated by the source.
Answer by giving the amount and then stating its unit.

compound: CCCCCCn1cc[n+](C)c1C.O=[N+]([O-])c1cn[n-]c1 [1-hexyl-2,3-dimethylimidazolium 4-nitropyrazolide] + CCCCCCCC[P+](CC)(CC)CC.O=S(=O)([N-]S(=O)(=O)C(F)(F)F)C(F)(F)F
viscosity: 91 ± 11 mPa·s
--
compound: CCCCCCCC[P+](CC)(CC)CC.O=[N+]([O-])c1cn[n-]c1 [triethyloctylphosphonium 4-nitropyrazolide] + CCCCCC[n+]1ccn(C)c1.O=S(=O)([N-]S(=O)(=O)C(F)(F)F)C(F)(F)F
viscosity: 73 ± 9 mPa·s
--
compound: CCCCCCCCCC[P+](CC)(CC)CC.O=[N+]([O-])c1cn[n-]c1 [decyltriethylphosphonium 4-nitropyrazolide] + CC[P+](CC)(CC)COCCOC.O=S(=O)([N-]S(=O)(=O)C(F)(F)F)C(F)(F)F
viscosity: 52 ± 6 mPa·s
--
compound: CCCCCCn1cc[n+](C)c1.O=[N+]([O-])c1cn[n-]c1 [1-hexyl-3-methylimidazolium 4-nitropyrazolide] + CCCCCCCC[P+](CC)(CC)CC.O=S(=O)([N-]S(=O)(=O)C(F)(F)F)C(F)(F)F
viscosity: 71 ± 9 mPa·s
--
compound: CC(=O)[O-].CCCCCCCCCCCCCC[P+](CCCCCC)(CCCCCC)CCCCCC [trihexyl(tetradecyl)phosphonium acetate] + CCCCCC[n+]1ccn(C)c1.O=S(=O)([N-]S(=O)(=O)C(F)(F)F)C(F)(F)F
viscosity: 181 ± 22 mPa·s

Now let's try a different one.
Item under review: CCCCCCn1cc[n+](C)c1.N#Cc1ccc[n-]1 [1-hexyl-3-methylimidazolium 2-cyanopyrrolide] + CCCCCCCCCCCCCC[P+](CCCCCC)(CCCCCC)CCCCCC.O=S(=O)([N-]S(=O)(=O)C(F)(F)F)C(F)(F)F . Reported viscosity?
127 ± 16 mPa·s

====

# methodSummary: xn = mol fraction of the nth substance listed
# conditionContext: 278.15 K; 100 kPa; Liquid; Cone and plate viscometry; x1 = 0.9
metricName: viscosity (mPa·s)
Numbers only, in mPa·s.

compound: CCCCCCCC[P+](CC)(CC)CC.O=[N+]([O-])c1cn[n-]c1 [triethyloctylphosphonium 4-nitropyrazolide] + CCCCCCn1cc[n+](C)c1C.O=S(=O)([N-]S(=O)(=O)C(F)(F)F)C(F)(F)F
viscosity / mPa·s: 1386

compound: CCCCCCn1cc[n+](C)c1.O=[N+]([O-])c1cn[n-]c1 [1-hexyl-3-methylimidazolium 4-nitropyrazolide] + CCCCCCCCCCCCCC[P+](CCCCCC)(CCCCCC)CCCCCC.O=S(=O)([N-]S(=O)(=O)C(F)(F)F)C(F)(F)F
viscosity / mPa·s: 2649

compound: CCCCCCCCCC[P+](CC)(CC)CC.O=[N+]([O-])c1cn[n-]c1 [decyltriethylphosphonium 4-nitropyrazolide] + CC[P+](CC)(CC)COCCOC.O=S(=O)([N-]S(=O)(=O)C(F)(F)F)C(F)(F)F
viscosity / mPa·s: 1198

compound: CCCCCCn1cc[n+](C)c1.N#Cc1ccc[n-]1 [1-hexyl-3-methylimidazolium 2-cyanopyrrolide] + CCCCCCCCCCCCCC[P+](CCCCCC)(CCCCCC)CCCCCC.O=S(=O)([N-]S(=O)(=O)C(F)(F)F)C(F)(F)F
viscosity / mPa·s: 1461

Now let's try a different one.
Item under review: CCCCCCn1cc[n+](C)c1.O=[N+]([O-])c1cn[n-]c1 [1-hexyl-3-methylimidazolium 4-nitropyrazolide] + CCCCCCCC[P+](CC)(CC)CC.O=S(=O)([N-]S(=O)(=O)C(F)(F)F)C(F)(F)F . Reported viscosity?
2181

Cited source for all entries: the NIST ThermoML archive (doi:10.1021/acs.jced.7b00221)
